Source listed as patent US12258327B2.

molecular target: EGFR del19/C797S (Homo sapiens, UniProt P00533, C797S/DEL746-750); assay: Biochemical EGFR kinase assay (Lance Ultra TR-FRET), double mutant del19/C797S; settings: Km ATP; read-out: IC50 del19/C797S (nM) Km ATP
Sequence (P00533 with tags, fused parts or gaps DEL746-750/C797S): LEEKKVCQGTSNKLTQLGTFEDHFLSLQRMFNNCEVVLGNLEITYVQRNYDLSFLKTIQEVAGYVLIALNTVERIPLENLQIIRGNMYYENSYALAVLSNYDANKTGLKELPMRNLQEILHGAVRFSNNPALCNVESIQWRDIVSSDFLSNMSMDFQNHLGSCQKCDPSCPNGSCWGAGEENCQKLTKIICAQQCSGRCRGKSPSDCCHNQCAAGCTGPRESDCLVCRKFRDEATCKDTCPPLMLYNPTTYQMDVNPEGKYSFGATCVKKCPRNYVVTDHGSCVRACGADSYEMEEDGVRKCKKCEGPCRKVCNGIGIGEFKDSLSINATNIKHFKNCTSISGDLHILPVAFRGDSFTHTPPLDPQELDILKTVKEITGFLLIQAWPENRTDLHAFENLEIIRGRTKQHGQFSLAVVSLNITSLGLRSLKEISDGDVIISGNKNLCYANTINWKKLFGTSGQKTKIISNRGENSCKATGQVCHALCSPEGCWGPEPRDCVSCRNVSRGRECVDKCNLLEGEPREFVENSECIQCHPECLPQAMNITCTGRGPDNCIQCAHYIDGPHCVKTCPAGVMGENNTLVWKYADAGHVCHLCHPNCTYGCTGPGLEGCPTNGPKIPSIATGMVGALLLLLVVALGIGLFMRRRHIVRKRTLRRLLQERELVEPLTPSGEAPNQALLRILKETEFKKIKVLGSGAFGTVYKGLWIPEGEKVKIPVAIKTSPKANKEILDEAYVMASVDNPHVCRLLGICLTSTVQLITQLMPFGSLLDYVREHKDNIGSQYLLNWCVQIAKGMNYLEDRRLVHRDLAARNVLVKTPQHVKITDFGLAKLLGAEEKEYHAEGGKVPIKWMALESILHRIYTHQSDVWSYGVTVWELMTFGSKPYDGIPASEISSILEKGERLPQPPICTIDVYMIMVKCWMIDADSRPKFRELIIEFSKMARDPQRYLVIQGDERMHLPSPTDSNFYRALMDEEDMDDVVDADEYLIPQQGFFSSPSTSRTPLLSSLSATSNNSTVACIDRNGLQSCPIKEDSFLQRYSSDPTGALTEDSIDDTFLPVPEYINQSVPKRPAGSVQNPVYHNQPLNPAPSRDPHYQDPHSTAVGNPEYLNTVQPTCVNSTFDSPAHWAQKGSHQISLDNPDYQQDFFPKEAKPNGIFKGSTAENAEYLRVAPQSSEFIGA
measurement-type: IC50 (nM)

Completed entries (count: 5):
- compound: "O=S(=O)(C1CC1)n1cc(-c2nccc(Nc3cc(NCC4CC5(CNC5)C4)c(-c4ccn(C(F)F)n4)cn3)n2)cn1"
  IC50 [nM]: 1.3
- compound: "FC(F)Cn1cc(-c2nccc(Nc3cc(NC4CCCC(F)C4)c(-c4ccn(C(F)F)n4)cn3)n2)cn1 (centres unmarked)"
  IC50 [nM]: 410
- compound: "Cn1cc(C#Cc2cc(Nc3ccnc(-c4cnn(S(=O)(=O)C5CC5)c4)n3)ncc2-c2cnn(CC3CC3)c2)cn1"
  IC50 [nM]: 39.7
- compound: "FC(F)Cn1cc(-c2nccc(Nc3cc(N[C@H]4CC[C@@H](F)CC4)c(-c4ccn(C(F)F)n4)cn3)n2)cn1"
  IC50 [nM]: 276
- compound: "O=S(=O)(C1CC1)n1cc(-c2nccc(Nc3cc(N[C@H]4CC[C@](O)(CO)CC4)c(-c4csc(N5CCOCC5)n4)cn3)n2)cn1"
  IC50 [nM]: 20.4

a = CN(C)C[C@]1(O)CC[C@@H](Nc2cc(Nc3ccnc(-c4cnn(S(=O)(=O)C5CC5)c4)n3)ncc2-c2ccn(C)n2)CC1
b = C[C@]1(O)CC[C@@H](Nc2cc(Nc3ccnc(-c4cnn(S(=O)(=O)C5CC5)c4)n3)ncc2-c2csc(N3CCOCC3)n2)CC1
c = Cn1ccc(-c2cnc(Nc3ccnc(-c4cnn(S(=O)(=O)C5CC5)c4)n3)cc2N[C@H]2CC[C@](O)(C(F)F)CC2)n1
d = CCC(C)Nc1cc(Nc2ccnc(-c3cnn(S(=O)(=O)C4CC4)c3)n2)ncc1-c1ccn(CC(F)F)n1 (centres unmarked)
Hey, quick one: sort these by IC50, largest value first please. Reply format: the labels, ordered as requested.
d, a, c, b
(d: 63.8 nM, a: 4.8 nM, c: 2.4 nM, b: 1.4 nM)
